Assignment: determine reported inhibition at 0.3 µM for the given molecules.
target-system: Type I 5α-Reductase from Human Scalp (Homo sapiens, UniProt P18405)
Construct: Scalp punch biopsies from graft recipient sites were obtained from human hair transplant procedures; from tissue; host or cells: human scalp punch biopsies (hair transplant graft recipient sites), homogenate, 100,000×g pellet
Sequence (P18405 whole entry): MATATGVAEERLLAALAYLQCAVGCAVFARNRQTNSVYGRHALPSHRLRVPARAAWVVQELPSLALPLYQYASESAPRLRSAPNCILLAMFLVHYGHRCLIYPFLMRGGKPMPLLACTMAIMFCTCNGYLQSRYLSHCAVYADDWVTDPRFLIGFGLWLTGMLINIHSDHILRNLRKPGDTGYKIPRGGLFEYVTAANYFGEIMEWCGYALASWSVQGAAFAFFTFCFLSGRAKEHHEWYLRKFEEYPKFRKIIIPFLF
assay-explanation: Human Type I 5α-reductase assay (conversion of [3H]-testosterone to 5α-reduced metabolites)
Type: biochemical
experimental-conditions: pH 7.5, 0.3 μM; 50 nM [3H]-testosterone, pH 7.5, 25°, 180 min; compared to control reaction mixtures; read-out: percent inhibition of Type I AR
Write the figure, then the unit, nothing else.

Per the record, `CN1C(=O)CC[C@]2(C)c3ccc(Sc4ccccc4Cl)cc3CC[C@@H]12` has inhibition at 0.3 µM of 88%

Per the record, `CN1C(=O)CC[C@]2(C)c3ccc(-c4ccc(O)c(C=O)c4)cc3CC[C@@H]12` has inhibition at 0.3 µM of 65%

Per the record, `CN1C(=O)CC[C@]2(C)c3ccc(CSc4ccccc4)cc3CC[C@@H]12` has inhibition at 0.3 µM of 90%

Per the record, `CN1C(=O)CC[C@]2(C)c3ccc(-c4cc(F)c(F)cc4F)cc3CC[C@@H]12` has inhibition at 0.3 µM of 82%

Per the record, `CN1C(=O)CC[C@]2(C)c3ccc(-c4cccc5cnccc45)cc3CC[C@@H]12` has inhibition at 0.3 µM of 65%

Per the record, `CN1C(=O)CC[C@]2(C)c3ccc(Sc4ccc5ccccc5n4)cc3CC[C@@H]12` has inhibition at 0.3 µM of 80%

Per the record, `CN1C(=O)CC[C@]2(C)c3ccc(Sc4nc5cc([N+](=O)[O-])ccc5s4)cc3CC[C@@H]12` has inhibition at 0.3 µM of 61%

Per the record, `CC(C)c1cccc2sc(Sc3ccc4c(c3)CC[C@H]3N(C)C(=O)CC[C@]43C)nc12` has inhibition at 0.3 µM of 88%

Per the record, `CN1C(=O)CC[C@]2(C)c3ccc(NC(=O)c4ccc([N+](=O)[O-])cc4)cc3CC[C@@H]12` has inhibition at 0.3 µM of 8%

Per the record, `CN1C(=O)CC[C@]2(C)c3ccc(Sc4nc5c(ccc6ccccc65)s4)cc3CC[C@@H]12` has inhibition at 0.3 µM of 80%

Per the record, `CN1C(=O)CC[C@]2(C)c3ccc(Sc4ccc5cc([N+](=O)[O-])ccc5n4)cc3CC[C@@H]12` has inhibition at 0.3 µM of 85%

Per the record, `C[C@]12CCC(=O)N[C@@H]1CCc1cc(Sc3cccc4ccccc34)ccc12` has inhibition at 0.3 µM of 87%

Per the record, `CC(=O)N1CCc2cc(-c3ccc4c(c3)CC[C@H]3N(C)C(=O)CC[C@]43C)cc([N+](=O)[O-])c21` has inhibition at 0.3 µM of 33%

Per the record, `CN1C(=O)CC[C@]2(C)c3ccc(C(=O)NCc4ccccc4)cc3CC[C@@H]12` has inhibition at 0.3 µM of 13%

Per the record, `CN1C(=O)CC[C@]2(C)c3ccc(-c4ccc(Cl)c(C(F)(F)F)c4)cc3CC[C@@H]12` has inhibition at 0.3 µM of 88%

Per the record, `CN1C(=O)CC[C@]2(C)c3ccc(Sc4nc5c(OC(F)(F)F)cccc5s4)cc3CC[C@@H]12` has inhibition at 0.3 µM of 88%

Per the record, `CN1C(=O)CC[C@]2(C)c3ccc(-c4ccc5c(c4)C(=O)C(=O)N5)cc3CC[C@@H]12` has inhibition at 0.3 µM of 36%

Per the record, `CN1C(=O)CC[C@]2(C)c3ccc(C(=O)OCc4ccccc4)cc3CC[C@@H]12` has inhibition at 0.3 µM of 90%

Per the record, `CSc1cccc(-c2ccc3c(c2)CC[C@H]2N(C)C(=O)CC[C@]32C)c1` has inhibition at 0.3 µM of 73%

Per the record, `CNS(=O)(=O)c1ccc(-c2ccc3c(c2)CC[C@H]2N(C)C(=O)CC[C@]32C)cc1` has inhibition at 0.3 µM of 10%

Per the record, `C[C@]12CCC(=O)N[C@@H]1CCc1cc(Sc3ccc4ccccc4n3)ccc12` has inhibition at 0.3 µM of 59%

Per the record, `CN1C(=O)CC[C@]2(C)c3ccc(-c4cccc(CNC(c5ccccc5)c5ccccc5)c4)cc3CC[C@@H]12` has inhibition at 0.3 µM of 86%

Per the record, `CN1C(=O)CC[C@]2(C)c3ccc(-c4cc(Cl)cc(Cl)c4)cc3CC[C@@H]12` has inhibition at 0.3 µM of 68%

Per the record, `CN1C(=O)CC[C@]2(C)c3ccc(Sc4nccc5sccc45)cc3CC[C@@H]12` has inhibition at 0.3 µM of 58%

Per the record, `CN1C(=O)CC[C@]2(C)c3ccc(CCc4ccccc4)cc3CC[C@@H]12` has inhibition at 0.3 µM of 97%

Per the record, `CN1C(=O)CC[C@]2(C)c3ccc(-c4nc5c(F)cccc5s4)cc3CC[C@@H]12` has inhibition at 0.3 µM of 86%

Per the record, `CN1C(=O)CC[C@]2(C)c3ccc(-c4ccc(NC(=O)C(C)(C)C)cc4)cc3CC[C@@H]12` has inhibition at 0.3 µM of 72%

Per the record, `CCN(CC)C(=O)c1cc2cc(-c3ccc4c(c3)CC[C@H]3N(C)C(=O)CC[C@]43C)ccc2oc1=O` has inhibition at 0.3 µM of 26%

Per the record, `C[C@]12CCC(=O)N[C@@H]1CCc1cc(SCc3ccccc3)ccc12` has inhibition at 0.3 µM of 59%

Per the record, `CN1C(=O)CC[C@]2(C)c3ccc(-c4c(F)c(F)c(Cl)c(F)c4F)cc3CC[C@@H]12` has inhibition at 0.3 µM of 92%

Per the record, `CN1C(=O)CC[C@]2(C)c3ccc(CCc4ccc5ccccc5c4)cc3CC[C@@H]12` has inhibition at 0.3 µM of 92%

Per the record, `CN1C(=O)CC[C@]2(C)c3ccc(Sc4nsc5ccccc45)cc3CC[C@@H]12` has inhibition at 0.3 µM of 59%
